- assayExplanation: Cytotoxicity, ATPlite Luminescence Assay
- Type: cell-based, human
- runConditions: human, HepG2 or HepG2.117 cells, 3-days incubation unless marked with *, ATPlite viability

{"columns": ["compound", "CC50"],
 "data": [
  ["CNC(=O)[C@@H]1CN(C(C)c2ccc(OC)nc2)C(=O)c2c3c(nn21)C[C@@H](C)N(C(=O)c1ccc(Cl)c(Cl)c1)C3 (single isomer, unassigned) [Compound 31A]", "> 50 µM"],
  ["CNC(=O)[C@@H]1CN([C@@H](C)c2ccc(OC(F)F)cc2)C(=O)c2c3c(nn21)C[C@@H](C)N(C(=O)c1ccc(Cl)c(C(F)F)c1)C3", "> 50 µM"],
  ["CNC(=O)[C@@H]1CN(C(C)c2ccc(S(=O)(=O)C3CC3)cc2)C(=O)c2c3c(nn21)C[C@@H](C)N(C(=O)c1ccc(Cl)c(C(F)(F)F)c1)C3 (single isomer, unassigned) [Compound 20A]", "> 50 µM"],
  ["CNC(=O)[C@@H]1CN(C(C)c2ccc(C3CC3)nc2)C(=O)c2c3c(nn21)C[C@@H](C)N(C(=O)c1ccc(Cl)c(Cl)c1)C3 (single isomer, unassigned) [Compound 32A]", "> 50 µM"],
  ["CNC(=O)[C@@H]1CN([C@@H](C)c2ccc(OC(F)F)cc2)C(=O)c2c3c(nn21)C[C@@H](C)N(C(=O)c1ccc(Cl)c(Cl)c1)C3 [Compound 16B]", "16.9 µM"]
]}

---

- assayExplanation: Human liver microsome stability
- Type: in vitro ADME
- runConditions: human, pooled human liver microsomes, pH 7.4, pooled human liver microsomes 0.5 mg/mL, 1 μM compound, NADPH 1 mM, pH 7.4, 37° C., 0-60 min; read-out: HLM Metabolism t1/2
# half-life at 1 μM values compiled below

{"columns": ["molecule", "half-life at 1 μM"],
 "data": [
  ["CNC(=O)[C@@H]1CN(C(C)c2ccc(C(C)(C)O)cc2)C(=O)c2c3c(nn21)C[C@@H](C)N(C(=O)c1ccc(Cl)c(Cl)c1)C3 (single isomer, unassigned) [Compound 5B]", "1.44 h"],
  ["CNC(=O)[C@@H]1CN(C(C)c2ccc(-c3c(C)noc3C)nc2)C(=O)c2c3c(nn21)C[C@@H](C)N(C(=O)c1ccc(Cl)c(Cl)c1)C3 (single isomer, unassigned) [Compound 35A]", "1.16 h"],
  ["C[C@@H]1Cc2nn3c(c2CN1C(=O)c1ccc(Cl)c(Cl)c1)C(=O)N([C@@H](C)c1ccc(OC(F)F)cc1)CC3 [Ref 2, reference compound]", "0.117 h"],
  ["CNC(=O)[C@@H]1CN(C(C)c2cnc(C(F)(F)F)nc2)C(=O)c2c3c(nn21)C[C@@H](C)N(C(=O)c1ccc(Cl)c(C(F)(F)F)c1)C3 (single isomer, unassigned) [Compound 43A]", "> 3 h"],
  ["CNC(=O)[C@@H]1CN(Cc2ccc(OC(F)F)cc2)C(=O)c2c3c(nn21)C[C@@H](C)N(C(=O)c1ccc(Cl)c(Cl)c1)C3 [Compound 17]", "> 3 h"],
  ["CNC(=O)[C@@H]1CN([C@@H](C)c2cnc(C(F)(F)F)nc2)C(=O)c2c3c(nn21)C[C@@H](C)N(C(=O)c1ccc(Cl)c(Cl)c1)C3 [Compound 4B]", "> 3 h"],
  ["CC(c1ccc(OC(F)F)nc1)N1C[C@@H](C(N)=O)n2nc3c(c2C1=O)CN(C(=O)c1ccc(Cl)c(Cl)c1)[C@H](C)C3 (single isomer, unassigned) [Compound 12A]", "> 3 h"],
  ["CNC(=O)[C@@H]1CN([C@H](C)c2ccc(OC(F)F)cc2)C(=O)c2c3c(nn21)C[C@@H](C)N(C(=O)c1ccc(Cl)c(Cl)c1)C3 [Compound 16A]", "> 3 h"],
  ["CNC(=O)[C@@H]1CN([C@@H](C)c2ccc(OC(F)F)cc2)C(=O)c2c3c(nn21)C[C@@H](C)N(C(=O)c1ccc(Cl)c(Cl)c1)C3 [Compound 16B]", "> 3 h"],
  ["CNC(=O)[C@@H]1CN(C(C)c2ccc(OC(F)F)nc2)C(=O)c2c3c(nn21)C[C@@H](C)N(C(=O)c1ccc(Cl)c(Cl)c1)C3 (single isomer, unassigned) [Compound 11A]", "> 3 h"],
  ["CNC(=O)[C@@H]1CN(C(C)c2ccc(OC(F)F)c(F)c2)C(=O)c2c3c(nn21)C[C@@H](C)N(C(=O)c1ccc(Cl)c(Cl)c1)C3 (single isomer, unassigned) [Compound 24A]", "> 3 h"]
]}
